- TARGET OF ASSAY: human PD-L1 (Homo sapiens (Human))
- Sequence (Q9NZQ7 19-290): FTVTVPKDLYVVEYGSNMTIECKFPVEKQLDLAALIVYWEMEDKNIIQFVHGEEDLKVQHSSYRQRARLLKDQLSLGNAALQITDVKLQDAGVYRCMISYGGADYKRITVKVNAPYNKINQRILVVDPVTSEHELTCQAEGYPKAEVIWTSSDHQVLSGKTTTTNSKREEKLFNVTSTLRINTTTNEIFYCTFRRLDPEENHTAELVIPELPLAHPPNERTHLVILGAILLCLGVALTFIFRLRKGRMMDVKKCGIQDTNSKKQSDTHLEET
- PROCEDURE DETAILS: T cell activation luciferase reporter cell culture system (T Cell Activation Assay)
- Type: cell-based
- TEST SETTINGS: luciferase reporter assay; PD-L1 aAPC/CHO-K1 cells with PD-1 effector Jurkat T cells
EXPERIMENTAL ENDPOINT: pEC50
Answer as the number alone; pEC50 is minus log10 of concentration in mol/L.

Recorded results for 2 compounds are shown here.
COc1cc(-c2nccc(-c3cccc(-c4ccc(CNC[C@H](C)O)c(OC)n4)c3Cl)c2Cl)cc2c1CN(C[C@H](C)O)CC2 [Compound 214] : 7.57
COc1nc(-c2cccc(-c3ccnc(-c4cc(OC)c5nc(CN[C@H]6CC[C@H](O)CC6)nn5c4)c3Cl)c2Cl)ccc1CNC(C)C [Compound 758] : 6.45

Next:
### Prompt Request the reported pEC50 associated with COc1nc(-c2cccc(-c3ccnc(-c4ccc5c(CNC6CN(C(C)=O)C6)cn(C)c5c4)c3Cl)c2Cl)ccc1CNC[C@@H]1CCC(=O)N1 [Compound 55]
### Response 6.90

Measured values drawn from patent US20240246964A1 for this set.
